System: Bacillus subtilis
Experiment: cleaved RNA product abundance (RNA/gDNA barcode ratio) relative to median wild-type variant (ratio to wild type); higher = more accumulation of the downstream cleavage product
Conditions: experiment (reporter, strain, medium): exp 4a: truncated aprE reporter, strain BJT201 with 2% xylose (RNase J1 expressed); cleavage site: cggR-gapA (positions -7 to +36 mutated)
The entries below are paired with their reported cleaved RNA product abundance.

Here are 4 sequences together with their reported answers.
> print(dat)
                                   seq.text              measured.endpoint  result
1  ACAGACGAAGGAGCCGCAAAGAAGTTATTAAGGGATGAATAATCACTCAATATAAAGATCTCTCACTTATTTAAA  cleaved RNA product abundance  0.0885
2  ACAGACGAAGGAGCCGCAAAGAAGTTATTAAAGGATGAATAACCCCTCAATATAAATATCTCTCACTTATTTAAA  cleaved RNA product abundance   0.108
3  ACAGACGAAGGAGCCGCAAAGAAGTTATTAAGGGATCAATAATCGCTCAATATAAATATCTCTCACTTATTTAAA  cleaved RNA product abundance  0.0655
4  ACAGACGAAGGAGCCGCAAAGATGTTATTAAGGGATGAATGATCCCTCAATATAAATATCTCTCACTTATTTAAA  cleaved RNA product abundance    0.51

Please examine the following record next.
-- ask Recorded cleaved RNA product abundance of ACAGACGAAGGAGCCGCAAAGAAGTTATTAAGGGTTGAATAATCCCTCAATATAAATATCTCTCACTTATTTAAA , please.
-- reply 0.483
